ASSAY INFO: Solubility (HPLC quantification of supernatant)
Assay type: physicochemical
EXPERIMENTAL CONDITIONS: thermodynamic from solid; water, room temperature, stirred about 30 minutes, 100 mg/mL charged; read-out: Solubility in water
REPORTED PROPERTY: solubility

Here's what some known entries look like.
> print(dat)
                                   compound  reported.property  measured.value
1  COc1ccc(/C(C#N)=C/c2ccc(N3CCC(OC(=O)CN4CCCCCCC4)CC3)s2)cc1OC.CS(=O)(=O)O [Compound 18]         solubility     ≥ 100 mg/mL
2  COc1ccc(/C(C#N)=C/c2ccc(N3CCC(OC(=O)CN4CCC4)CC3)s2)cc1OC.CS(=O)(=O)O [Compound 8]         solubility     ≥ 100 mg/mL

// switching to the query compound
Identify measured solubility corresponding to COc1ccc(/C(C#N)=C/c2ccc(N3CCC(OC(=O)CN4CCOCC4)CC3)s2)cc1OC.CS(=O)(=O)O [Compound 22]
≥ 100 mg/mL

---

System: BCRP-gene-transfected human colon cancer HCT116 cells (HCT116/BCRP cells)
ASSAY INFO: Effect of overcoming anticancer agent resistance in vivo (oral administration), HCT116/BCRP xenograft with CPT-11
Set-up: species or system BALB/c male nude mice
EXPERIMENTAL CONDITIONS: compound 0.20 mmol/kg/day oral once a day for nine days + CPT-11 45 mg/kg/day i.v. day 1, 5, 9; tumor weighed day 21
Listed compounds paired with reported Tumor weight (g) Mean ± S.D.
Reply numerically in g, unit not repeated.

Study these solved cases before continuing.
> print(dat)
                                   compound             reported.property  measured.value
1  COc1ccc(/C(C#N)=C/c2ccc(N3CCC(OC(=O)CN4CCCCC4)CC3)s2)cc1OC.Cl [Compound 3]  Tumor weight (g) Mean ± S.D.            0.73
2  COc1ccc(/C(C#N)=C/c2ccc(N3CCC(OC(=O)CN4CCC(O)CC4)CC3)s2)cc1OC.CS(=O)(=O)O [Compound 6]  Tumor weight (g) Mean ± S.D.            0.82
3  COc1ccc(/C(C#N)=C/c2ccc(N3CCC(OC(=O)CN4CCC(O)CC4)CC3)s2)cc1OC.Cl [Compound 4]  Tumor weight (g) Mean ± S.D.            0.89

Complete the entry with Tumor weight (g) Mean ± S.D. for COc1ccc(/C(C#N)=C/c2ccc(N3CCC(OC(=O)CN4CCCCC4)CC3)s2)cc1OC.CS(=O)(=O)O [Compound 5]
0.73
